# Study system: Aurora kinase C (Homo sapiens) (UniProt Q9UQB9)
# Sequence (Q9UQB9 whole entry): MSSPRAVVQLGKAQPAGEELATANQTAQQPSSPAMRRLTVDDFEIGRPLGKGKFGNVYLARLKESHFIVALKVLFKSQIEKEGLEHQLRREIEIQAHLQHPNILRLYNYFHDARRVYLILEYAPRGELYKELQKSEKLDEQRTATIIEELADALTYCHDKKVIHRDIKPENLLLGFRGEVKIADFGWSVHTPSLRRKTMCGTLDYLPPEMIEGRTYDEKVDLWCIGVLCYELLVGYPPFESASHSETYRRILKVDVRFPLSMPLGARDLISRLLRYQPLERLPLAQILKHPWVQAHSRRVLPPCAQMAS
# Cond: at 10 µM
Assay metric: residual activity
Please report the result as a number followed by the unit.

Solved cases (3 shown):
Cpd smiles | residual activity
O=C1NC(=O)c2c1c1c3ccccc3[nH]c1n1cncc21 | 12%
COc1cc2ncnc(Nc3cccc(Cl)c3)c2cc1OC | 45%
Cn1sc(=O)n(Cc2ccccc2)c1=O | 77%

// moving on: another record for residual activity
Item "Nc1nccc(-c2c(-c3ccc(F)cc3)ncn2C2CCNCC2)n1" has what recorded residual activity?
78%

---

# Study system: Tyrosine-protein kinase Tec (Homo sapiens)
# Cond: at 1 µM
Quick reference for residual activity among some compounds
Unit % implied. Number only.

Examples from the recorded data:
Compound | Study system | Assay metric | Unit abbreviation | Numeric readout
O=C(CCCc1ccc(-c2ccccc2F)cc1)Nc1ccc(O)cc1 | Tyrosine-protein kinase Tec (Homo sapiens) | residual activity | % | 93
COc1ccc(CNC(=O)Nc2ncc([N+](=O)[O-])s2)cc1 | Tyrosine-protein kinase Tec (Homo sapiens) | residual activity | % | 102
O=C1C(Cl)=C(N2C(=O)CCC2=O)C(=O)c2ccccc21 | Tyrosine-protein kinase Tec (Homo sapiens) | residual activity | % | 90

// lookup residual activity for "CC(C)[C@H](CO)Nc1nc(Nc2cc(N)cc(Cl)c2)c2ncn(C(C)C)c2n1"
61

Repeat for the following compound: "O=C1NC(=O)c2c1c1c3ccccc3[nH]c1n1cncc21"
70

Similarly, "CCCC(=O)Oc1ccc2[nH]c(C(=O)c3cc4ccccc4[nH]3)cc2c1" ?
85

---

# Study system: Ephrin type-A receptor 5 (Homo sapiens)
# Cond: at 1 µM
Assay metric: residual activity (%)
Express the result in % but write the number alone.

Cpd smiles | Assay metric | Numeric readout
Nc1nccc(-c2c(-c3ccc(F)cc3)ncn2C2CCNCC2)n1 | residual activity | 113
Nc1nc(Nc2ccc(S(N)(=O)=O)cc2)nn1C(=O)c1c(F)cccc1F | residual activity | 103
COc1cc2nccc(Oc3ccc(NC(=S)NC(=O)c4ccccc4C)cc3)c2cc1OC | residual activity | 91
CCCCc1c(-c2ccc(OC)cc2)[nH]c2nccnc12 | residual activity | 100
CC(C)(C)n1nc(Cc2cccc3ccccc23)c2c(N)ncnc21 | residual activity | 21
Oc1cccc(-c2nc(N3CCOCC3)c3oc4ncccc4c3n2)c1 | residual activity | 98

With those in mind, consider the next molecule.
Bench note: what residual activity did "O=C1NC(=O)C(c2cn(CCCn3ccnc3)c3ccccc23)=C1Nc1ccccc1" show?
125

---

# Study system: Calcium/calmodulin-dependent protein kinase type 1 (Homo sapiens) (UniProt Q14012)
# Sequence (Q14012 whole entry, looked up): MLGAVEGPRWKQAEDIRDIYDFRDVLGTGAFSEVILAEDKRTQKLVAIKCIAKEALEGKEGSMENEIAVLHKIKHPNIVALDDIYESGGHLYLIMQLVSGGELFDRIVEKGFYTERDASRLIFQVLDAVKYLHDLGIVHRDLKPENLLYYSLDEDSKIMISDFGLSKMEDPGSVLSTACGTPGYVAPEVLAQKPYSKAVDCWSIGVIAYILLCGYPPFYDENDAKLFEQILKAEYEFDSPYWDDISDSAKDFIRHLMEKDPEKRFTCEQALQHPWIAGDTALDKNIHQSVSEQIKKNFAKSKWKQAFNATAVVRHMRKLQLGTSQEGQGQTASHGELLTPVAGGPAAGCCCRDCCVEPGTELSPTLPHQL
# Cond: at 10 µM
Assay metric: residual activity

residual activity for "Nc1ncnc2[nH]nc(Nc3ccc(F)cc3)c12" ?
72%

Next up: "O=C1C(Cl)=C(N2C(=O)CCC2=O)C(=O)c2ccccc21"
78%

What would you report for "CCOC(=O)c1c(C)[nH]c(/C=C2\C(=O)Nc3ccccc32)c1C" ?
77%

---

# Study system: Serine/threonine-protein kinase Nek11 (Homo sapiens)
# Cond: at 10 µM
# if value of residual activity reaches 80%, tag true; if it stays below, tag false

Worked examples, 2 compounds total:
Cpd smiles | Label class
Nc1nccc(-c2c(-c3ccc(F)cc3)ncn2C2CCNCC2)n1 | false
O=C1NC(=O)C(c2cn(CCCn3ccnc3)c3ccccc23)=C1Nc1ccccc1 | false

Evaluate "COc1cc2nccc(Oc3ccc(NC(=S)NC(=O)c4ccccc4C)cc3)c2cc1OC" : residual activity at minimum 80%?
true
